System: A. baumannii ATCC 19606
condition label: ATCC 19606
Square brackets hold non-standard residues; d marks the D form. Peptide text beside a SMILES is read from it. * marks the point of attachment. X1 = CC[C@H](C)CCCCC(=O)*; dDab = NCC[C@@H](N)C(=O)O; Dab = NCC[C@H](N)C(=O)O
reported metric: Peptide MIC

Query: Peptide MIC; subject: CC[C@H](C)CCCCC(=O)NCC(=O)N[C@H](CCN)C(=O)NCC(=O)N[C@H](CO)C(=O)N[C@H](Cc1c[nH]c2ccccc12)C(=O)N[C@@H](CO)C(=O)N[C@@H](CCN)C(=O)N[C@H](CCN)C(=O)N[C@H](C(=O)N[C@@H](CCC(=O)O)C(=O)N[C@H](C(=O)N[C@@H](C(=O)N[C@@H](CO)C(=O)O)C(C)C)C(C)C)[C@@H](C)CC [M2] (X1-G[dDab]G[dS][dW]S[Dab][dDab]IEV[dV]S-OH) >32 µg/mL

###

Test system: P. aeruginosa ATCC 27853
condition label: ATCC 27853
Square brackets hold non-standard residues; d marks the D form. Peptide text beside a SMILES is read from it. * marks the point of attachment. d(aIle) = CC[C@H](C)[C@@H](N)C(=O)O; X1 = CC[C@H](C)CCCCC(=O)*; dDab = NCC[C@@H](N)C(=O)O; Dab = NCC[C@H](N)C(=O)O
The following compounds are shown together with reported Peptide MIC values.

Below, 2 compounds whose answers are already recorded.
CC[C@H](C)CCCCC(=O)NCC(=O)N[C@H](CCN)C(=O)NCC(=O)N[C@H](CO)C(=O)N[C@H](Cc1c[nH]c2ccccc12)C(=O)N[C@@H](CO)C(=O)N[C@@H](CCN)C(=O)N[C@H](CCN)C(=O)N[C@H](C(=O)N[C@@H](CCC(=O)O)C(=O)N[C@H](C(=O)N[C@@H](C(=O)N[C@@H](CO)C(=O)O)[C@@H](C)CC)[C@@H](C)CC)[C@@H](C)CC [M1, tridecaptin M] (X1-G[dDab]G[dS][dW]S[Dab][dDab]IEI[d(aIle)]S-OH) : >128 µg/mL
CC[C@H](C)CCCCC(=O)NCC(=O)N[C@H](CCN)C(=O)NCC(=O)N[C@H](CO)C(=O)N[C@H](Cc1c[nH]c2ccccc12)C(=O)N[C@@H](CO)C(=O)N[C@@H](CCN)C(=O)N[C@H](CCN)C(=O)N[C@H](C(=O)N[C@@H](CCC(=O)O)C(=O)N[C@H](C(=O)N[C@@H](C(=O)N[C@@H](CO)C(=O)O)[C@@H](C)CC)[C@@H](C)CC)C(C)C [M7] (X1-G[dDab]G[dS][dW]S[Dab][dDab]VEI[d(aIle)]S-OH) : >32 µg/mL

Query: Peptide MIC; subject: CC[C@H](C)CCCCC(=O)NCC(=O)N[C@H](CCN)C(=O)NCC(=O)N[C@H](CO)C(=O)N[C@H](Cc1ccccc1)C(=O)N[C@@H](CO)C(=O)N[C@@H](CCN)C(=O)N[C@H](CCN)C(=O)N[C@H](C(=O)N[C@@H](CCC(=O)O)C(=O)N[C@H](C(=O)N[C@@H](C(=O)N[C@@H](CO)C(=O)O)C(C)C)[C@@H](C)CC)[C@@H](C)CC [M5] (X1-G[dDab]G[dS][dF]S[Dab][dDab]IEI[dV]S-OH) >32 µg/mL
